- Read-out: Vascular cell adhesion molecule 1 (VCAM1), VCAM1 (gene 7412)
- Experiment Summary: BSK_CASM3C_VCAM1: BioMAP Diversity Plus: CASM3C Assay for Vascular cell adhesion molecule 1 (VCAM1) Biomarker Activity (AID 2283055);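 note: VCAM-1 protein level quantified by ELISA on the cells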
- Test Context: primary human coronary artery smooth muscle cells; actives raise or lower the signal
Active and inactive are the calls of the source. Rule for the calls: active = hit-call score of the fitted dose curve at least 0.9, where 1 is the maximum; inactive = score below 0.9.
Outcome codes: active, inactive

{"columns": ["Compound", "Assigned Category"],
 "data": [
  ["CCC(C)(NC(=O)c1cc(Cl)c(C)c(Cl)c1)C(=O)CCl (centres undefined)", "active"],
  ["CCOCN(C(=O)CCl)c1c(C)cccc1CC", "active"],
  ["CCC(C)Nc1c([N+](=O)[O-])cc(C(C)(C)C)cc1[N+](=O)[O-] (centres undefined)", "inactive"],
  ["COP(=O)(OC)OC=C(Cl)Cl", "inactive"]
]}

###

- Read-out: Early growth response protein 1 (EGR1) transcription factor, EGR1 (gene 1958)
- Experiment Summary: LTEA_HepaRG_EGR1: Life Technologies and Expression Analysis (LTEA) Assay for Early growth response protein 1 (EGR1) transcription factor using HepaRG (AID 2283490)
- Test Context: mRNA level, 48 h; actives raise or lower the signal
Calls of active or inactive are those of the source. How the source made its calls: active means hit-call score of the fitted dose curve at least 0.9, where 1 is the maximum; inactive means score below 0.9.
Outcome codes: y (active), n (inactive)

{"columns": ["Compound", "Assigned Category"],
 "data": [
  ["CCC(C)Nc1c([N+](=O)[O-])cc(C(C)(C)C)cc1[N+](=O)[O-] (centres undefined)", "n"],
  ["CC(C)OC(=O)Nc1cccc(Cl)c1", "n"],
  ["O=S1OCC2C(CO1)C1(Cl)C(Cl)=C(Cl)C2(Cl)C1(Cl)Cl (centres undefined)", "n"],
  ["O=C(O)COc1ccc(Cl)cc1Cl", "n"],
  ["CCC(C)(NC(=O)c1cc(Cl)c(C)c(Cl)c1)C(=O)CCl (centres undefined)", "n"],
  ["O=C1c2ccccc2C(=O)N1SC(Cl)(Cl)Cl", "n"],
  ["CC(C)N(C(=O)COc1nnc(C(F)(F)F)s1)c1ccc(F)cc1", "n"],
  ["CNC(=O)Oc1ccccc1OC(C)C", "n"],
  ["CCOC1Oc2ccc(OS(C)(=O)=O)cc2C1(C)C (centres undefined)", "n"],
  ["O=[N+]([O-])/N=C1\\NCCN1Cc1ccc(Cl)nc1", "n"],
  ["O=C(O)CCCOc1ccc(Cl)cc1Cl", "n"],
  ["N#Cc1c(Cl)c(Cl)c(Cl)c(C#N)c1Cl", "n"],
  ["ClC1C(Cl)C(Cl)C(Cl)C(Cl)C1Cl (centres undefined)", "n"],
  ["COP(=S)(OC)Oc1ccc(SC)c(C)c1", "n"],
  ["CCOCN(C(=O)CCl)c1c(C)cccc1CC", "n"],
  ["N#CN", "n"],
  ["C#CCN1C(=O)COc2cc(F)c(N3C(=O)C4=C(CCCC4)C3=O)cc21", "y"],
  ["CC1(C)C(C=C(Cl)Cl)C1C(=O)OC(C#N)c1ccc(F)c(Oc2ccccc2)c1 (centres undefined)", "n"],
  ["CNC(=O)CSP(=S)(OC)OC", "n"],
  ["CC(C)(C)C(O)/C(=C\\c1ccc(Cl)cc1Cl)n1cncn1 (centres undefined)", "y"],
  ["CCc1ccc(C(=O)NN(C(=O)c2cc(C)cc(C)c2)C(C)(C)C)cc1", "y"],
  ["C[C@H]1[C@H](c2ccc(Cl)cc2)SC(=O)N1C(=O)NC1CCCCC1", "n"],
  ["O=C(NC(=O)c1c(F)cccc1F)Nc1ccc(OC(F)(F)C(F)OC(F)(F)F)c(Cl)c1 (centres undefined)", "n"],
  ["Clc1ccccc1-c1nnc(-c2ccccc2Cl)nn1", "n"]
]}
